In this section we review reported pEC50 values for a set of compounds.
biological target: Ba/F3 stable cells (Homo sapiens, UniProt P00533, T790M/L858R, cells depend on it); construct: EC50 Ba/F3-EGFR L858R-T790M; other: Ba/F3-EGFR L858R-T790M cells, 72 h, CCK-8; experiment: EC50 assay: Ba/F3 stable cell proliferation (CCK-8, 72 h); details: Ba/F3-EGFR L858R-T790M cells
Sequence (P00533 whole entry T790M/L858R): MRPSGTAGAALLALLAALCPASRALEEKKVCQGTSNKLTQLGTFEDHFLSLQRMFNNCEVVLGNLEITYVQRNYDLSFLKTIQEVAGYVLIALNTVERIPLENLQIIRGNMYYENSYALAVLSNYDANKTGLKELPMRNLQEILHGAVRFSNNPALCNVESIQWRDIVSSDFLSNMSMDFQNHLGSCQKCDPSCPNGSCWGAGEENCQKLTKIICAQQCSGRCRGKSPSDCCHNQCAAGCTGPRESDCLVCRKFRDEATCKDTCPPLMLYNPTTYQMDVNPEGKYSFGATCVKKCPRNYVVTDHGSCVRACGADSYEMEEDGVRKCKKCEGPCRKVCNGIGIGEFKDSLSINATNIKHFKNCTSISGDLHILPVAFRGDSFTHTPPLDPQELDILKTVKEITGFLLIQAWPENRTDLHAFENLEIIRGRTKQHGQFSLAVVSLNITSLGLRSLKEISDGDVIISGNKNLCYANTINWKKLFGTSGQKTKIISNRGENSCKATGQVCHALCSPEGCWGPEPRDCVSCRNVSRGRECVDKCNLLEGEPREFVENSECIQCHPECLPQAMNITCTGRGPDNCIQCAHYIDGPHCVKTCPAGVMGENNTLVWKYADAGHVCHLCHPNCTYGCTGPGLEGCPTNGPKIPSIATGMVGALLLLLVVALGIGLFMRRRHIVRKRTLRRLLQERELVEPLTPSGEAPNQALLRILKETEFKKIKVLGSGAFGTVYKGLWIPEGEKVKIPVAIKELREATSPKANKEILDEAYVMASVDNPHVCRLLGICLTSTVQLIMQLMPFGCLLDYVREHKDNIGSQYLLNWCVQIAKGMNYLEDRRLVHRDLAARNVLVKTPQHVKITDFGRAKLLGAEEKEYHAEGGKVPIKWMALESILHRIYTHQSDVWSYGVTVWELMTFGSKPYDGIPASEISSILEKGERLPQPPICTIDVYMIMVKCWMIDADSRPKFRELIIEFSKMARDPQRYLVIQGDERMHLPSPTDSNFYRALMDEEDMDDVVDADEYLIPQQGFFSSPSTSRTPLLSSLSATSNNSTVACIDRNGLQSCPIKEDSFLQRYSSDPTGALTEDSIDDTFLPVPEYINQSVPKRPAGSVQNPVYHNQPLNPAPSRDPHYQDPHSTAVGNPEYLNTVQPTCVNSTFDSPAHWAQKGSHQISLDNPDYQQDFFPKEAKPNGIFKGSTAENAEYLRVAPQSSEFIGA
pEC50: −log10 of the molar value.

Below: 5 compounds and their reported pEC50.
Notebook: `C=CC(=O)N1CCC(Oc2cc3c(Nc4cccc5cc[nH]c45)ncnc3cc2OC)CC1` , pEC50 read as 6.00 to 6.70

Notebook: `C=CC(=O)N1CC(c2cc3c(Nc4ccc(Cl)c(Cl)c4F)ncnc3cc2OCCCN2CCN(C)CC2)C1` , pEC50 read as ≥ 6.70

Notebook: C=CC(=O)NC1CC(Oc2cc3c(NCc4ccc(F)cc4)ncnc3cc2OC)C1 (centres unmarked) , pEC50 read as < 6.00

Notebook: `C#CC(=O)N1CCC(Oc2cc3c(Nc4ccc(Cl)c(Cl)c4F)ncnc3cc2OC)CC1` , pEC50 read as ≥ 6.70

Notebook: `C=CC(=O)N1CC(c2cc3c(Nc4ccc(F)c5ccccc45)ncnc3cc2OC)C1` , pEC50 read as ≥ 6.70

Others:
Notebook: `C=CC(=O)N1CCC(Oc2cc3c(Nc4cccc5c4CCC5)ncnc3cc2OC)CC1` , pEC50 read as 6.00 to 6.70

Notebook: `C=CC(=O)N[C@H]1C[C@H](Oc2cc3c(Nc4ccc(C#N)c(Cl)c4)ncnc3cc2OC)C1` , pEC50 read as < 6.00

Notebook: `C=CC(=O)N1CCC(Oc2cc3c(N[C@H](C)c4ccc(F)cc4)ncnc3cc2OC)CC1` , pEC50 read as < 6.00

----------
Biological target: Ba/F3 stable cells (Homo sapiens, UniProt P00533, DUP768-770, cells depend on it)
Construct: EC50 Ba/F3-EGFR D770-N771insSVD; other: Ba/F3-EGFR D770-N771insSVD cells, 72 h, CCK-8
Sequence (P00533 with tags, fused parts or gaps DUP768-770): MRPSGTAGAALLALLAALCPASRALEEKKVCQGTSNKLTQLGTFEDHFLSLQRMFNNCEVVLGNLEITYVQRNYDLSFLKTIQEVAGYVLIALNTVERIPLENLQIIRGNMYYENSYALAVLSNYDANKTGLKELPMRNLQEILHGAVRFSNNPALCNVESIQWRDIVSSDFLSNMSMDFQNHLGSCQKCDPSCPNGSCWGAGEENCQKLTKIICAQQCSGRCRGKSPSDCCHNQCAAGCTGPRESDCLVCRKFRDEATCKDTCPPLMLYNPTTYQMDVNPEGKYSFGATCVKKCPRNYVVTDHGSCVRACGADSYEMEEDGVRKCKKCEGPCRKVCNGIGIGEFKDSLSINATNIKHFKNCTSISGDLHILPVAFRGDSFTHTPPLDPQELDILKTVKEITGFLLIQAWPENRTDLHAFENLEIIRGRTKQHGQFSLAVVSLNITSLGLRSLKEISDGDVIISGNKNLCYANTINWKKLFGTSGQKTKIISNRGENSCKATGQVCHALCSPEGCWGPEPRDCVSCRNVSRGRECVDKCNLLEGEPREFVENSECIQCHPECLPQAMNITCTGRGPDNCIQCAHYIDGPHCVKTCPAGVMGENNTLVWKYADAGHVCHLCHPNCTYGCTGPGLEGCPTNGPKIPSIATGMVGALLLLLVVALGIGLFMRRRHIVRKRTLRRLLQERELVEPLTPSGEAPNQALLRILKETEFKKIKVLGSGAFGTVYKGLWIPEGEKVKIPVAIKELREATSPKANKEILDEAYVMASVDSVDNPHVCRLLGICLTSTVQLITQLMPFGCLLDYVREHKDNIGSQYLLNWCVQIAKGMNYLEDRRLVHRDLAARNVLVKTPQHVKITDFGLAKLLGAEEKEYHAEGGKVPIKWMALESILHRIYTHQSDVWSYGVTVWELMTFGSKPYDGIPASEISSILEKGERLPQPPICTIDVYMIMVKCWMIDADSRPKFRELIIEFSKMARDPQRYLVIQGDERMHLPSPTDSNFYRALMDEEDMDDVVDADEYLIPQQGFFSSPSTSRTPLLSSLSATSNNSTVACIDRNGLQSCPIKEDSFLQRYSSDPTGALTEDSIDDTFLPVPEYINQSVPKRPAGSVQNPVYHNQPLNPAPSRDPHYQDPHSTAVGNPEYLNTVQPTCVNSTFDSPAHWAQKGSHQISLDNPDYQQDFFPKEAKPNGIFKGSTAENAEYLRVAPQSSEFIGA
Test: EC50 assay: Ba/F3 stable cell proliferation (CCK-8, 72 h)
Details: Ba/F3-EGFR D770-N771insSVD cells
Protocol: 4,000 Ba/F3 stable cells/90 μL/well were plated onto 96-well cell culture plate (Grenier, Cat.No. 655180) and incubated at 37° C. with a humidified atmosphere of 5% CO2 for 2 h. Then the cells were treated with 10 μL compounds at serial titration. […] 10 μL the cell proliferation reagent CCK-8 (Dojindo, Cat.No. CK04 1000T) was added into each well and incubated the plate at 37° C. for 4 hours, the GD value was measured by SPECTRAmax plus (Molecular Devices) at 450 nm. […]
In this section we review reported EC50 values for a set of compounds.

Below: 7 compounds and their reported EC50.
Notebook: C=CC(=O)N1CC(c2cc3c(Nc4ccc(Cl)c(Cl)c4F)ncnc3cc2OC2CCOCC2)C1 [Compound 27] , EC50 read as 200 to 1000 nM

Notebook: C=CC(=O)N1CCC(Oc2cc3c(Nc4ccc5[nH]ncc5c4)ncnc3cc2OC)CC1 [Compound 150] , EC50 read as > 1000 nM

Notebook: C=CC(=O)N1CCC(Oc2cc3c(N[C@H](C)c4ccc(F)cc4)ncnc3cc2OC)CC1 [Compound 173] , EC50 read as > 1000 nM

Notebook: C=CC(=O)N1CCC(Oc2cc3c(Nc4cccc5cc[nH]c45)ncnc3cc2OC)CC1 [Compound 166] , EC50 read as > 1000 nM

Notebook: C=CC(=O)N[C@H]1C[C@@H](Oc2cc3c(Nc4ccc(Cl)c(Cl)c4F)ncnc3cc2OCCO)C1 [Compound 100] , EC50 read as 200 to 1000 nM

Notebook: C#CC(=O)N1C2CCCC1CC(Oc1cc3c(Nc4cccc5ccccc45)ncnc3cc1OC)C2 (centres unmarked) [Compound 57] , EC50 read as ≤ 200 nM

Notebook: C=CC(=O)N1CC(c2cc3c(Nc4ccc(Cl)c(Cl)c4F)ncnc3cc2OCCOC)C1 [Compound 17] , EC50 read as ≤ 200 nM

Now consider a different compound.
Notebook: C=CC(=O)N1CC(c2cc3c(Nc4ccc(F)c(Cl)c4F)ncnc3cc2O[C@H]2CCOC2)C1 [Compound 33] , EC50 read as ≤ 200 nM

The measured values listed here are drawn from patent US20250243171A1.
